- Tested on: IGROV1 ovarian
- assayNotes: NCI tumour cell line growth inhibition, 48 h
measuredQuantity: TGI

>  <compound>
COc1ccc(-c2cn[nH]c2-c2cc(OC)c(OC)c(OC)c2)cc1N

>  <TGI>
> 100 µM

$$$$
>  <compound>
S=C(N/N=C/c1ccccn1)Nc1ccccn1

>  <TGI>
> 100 µM

$$$$
>  <compound>
CCOC(=O)Oc1c(OC)cc(C(=O)O[C@@H]2C[C@@H]3CN4CCc5c([nH]c6cc(OC)ccc56)[C@H]4C[C@@H]3[C@H](C(=O)OC)[C@H]2OC)cc1OC

>  <TGI>
39.2 µM

$$$$
>  <compound>
O=C1CCC2(C=C(Br)C(=O)C(Br)=C2)O1

>  <TGI>
15.6 µM

$$$$
>  <compound>
CC(C)/C=N\n1c(N)c(C#N)c(C#N)c1C(C)C

>  <TGI>
77.8 µM

$$$$

[Q] Query (compound): CC1N(C)C(=O)OC12CCN(CCCC(=O)c1ccc(F)cc1)CC2 (stereo unspecified) ; field requested: TGI
[A] > 100 µM

[Q] Query (compound): `CCCNC(=S)/N=C\c1c(O)c2ccccc2oc1=O` ; field requested: TGI
[A] > 100 µM

[Q] Query (compound): `C[C@]12CCC(=O)C(O)=C1CC[C@@H]1[C@@H]2CC[C@]2(C)C(=O)CC[C@@H]12` ; field requested: TGI
[A] > 100 µM

[Q] Query (compound): O=C1CC2(CCC(O)(c3ccc(Cl)cc3)C(C(=O)c3ccc(Cl)cc3)C2)C(=O)c2ccccc2N1 (stereo unspecified) ; field requested: TGI
[A] > 52.1 µM

[Q] Query (compound): `Cc1c2cc[nH]c(=O)c2cc2c(=O)c3cnccc3[nH]c12` ; field requested: TGI
[A] > 100 µM

[Q] Query (compound): NC1CC(=O)c2cc(Br)sc21 (stereo unspecified) ; field requested: TGI
[A] > 100 µM

[Q] Query (compound): COc1cc2cc(C(=O)N3CC(CCl)c4ccc(NCCN)cc43)[nH]c2c(OC)c1OC (stereo unspecified) ; field requested: TGI
[A] 0.375 µM

[Q] Query (compound): `S=C(Nc1ccc(Cl)cc1)Nc1ccc(-c2nc3ccccc3[nH]2)cc1` ; field requested: TGI
[A] 23.7 µM

[Q] Query (compound): CC(=O)OCC1OC(O[C@@H]2c3c(O)c4c(c(O)c3C3=C(NN(c5ccc([N+](=O)[O-])cc5[N+](=O)[O-])[Se]3=O)[C@@]2(C)O)C(=O)c2ccccc2C4=O)C(OC(C)=O)C(OC(C)=O)C1OC(C)=O (stereo partly specified) ; field requested: TGI
[A] 1.09 µM

----------
- Test system: COLO 205 colon
- assayNotes: NCI tumour cell line growth inhibition, 48 h; in the data active means GI50 below about 0.43 µM; inactive means the rest
Permitted responses: 1 (yes) for active, 0 (no) for inactive

A selection of reference data follows.
>  <compound>
O=C(C(Br)Br)C(Br)C(Br)c1ccccc1 (stereo not given)

>  <groupLabel>
0 (no)

$$$$
>  <compound>
CN(C)CCCNC(=O)c1cc(NC(=O)c2cc(NC(=O)c3cc(NC(=O)CCc4c[nH]c5ccccc45)cn3C)cn2C)cn1C

>  <groupLabel>
0 (no)

$$$$

[Q] For `COc1ccc(/C=C\c2cc(OC)c(OC)c(OC)c2)cc1OCC(=O)Nc1nc2ccc(C(F)(F)F)cc2s1` , what call appears in the results of this test?
[A] 0 (no)

[Q] For `O=C(Nc1ncc(Cc2ccccc2Cl)s1)c1ccc2c(c1)OCCO2` , what call appears in the results of this test?
[A] 1 (yes)

[Q] For `O=[N+]([O-])/C=C/c1c[nH]c2ccccc12` , what call appears in the results of this test?
[A] 0 (no)
